Origin of measurements: patent US9169254B2

testTarget: human PTH1 receptor (Homo sapiens, UniProt Q03431)
assayComment: In vitro cAMP signal activity in HKRK-B7 cells (LLC-PK1 cells overexpressing the human PTH1 receptor)
Type: cell-based
conditionDescription: HKRK-B7 cells; compound at 1×10^−3 M; cAMP produced as percentage of that produced by hPTH(1-34) at 100 nM
Each record here notes measured cAMP production activity (%).
experimentalReadout: cAMP production activity (%)

compound	testTarget	result
CCC[C@H]1CC[C@H](C2=NC3(CCN(S(=O)(=O)c4cccc(Cl)c4)CC3)C(=O)N2)CC1 [Compound 21]	human PTH1 receptor (Homo sapiens, UniProt Q03431)	42%
Cc1cc(S(=O)(=O)NC2CCN(Cc3ccccc3)CC2)ccc1/C=C/S(=O)(=O)N1CCC2(CC1)N=C(c1cccc(OC(F)(F)F)c1)NC2=O [Compound 596]	human PTH1 receptor (Homo sapiens, UniProt Q03431)	40%
COCCN(C(C)=O)c1ccc(CCS(=O)(=O)N2CCC3(CC2)N=C(C2CCC(CCC(F)(F)F)CC2)NC3=O)c(C)c1 (stereo not shown) [Compound 755]	human PTH1 receptor (Homo sapiens, UniProt Q03431)	74%
CC(=O)Nc1ccc(CCS(=O)(=O)N2CCC3(CC2)N=C(C2CCC(CCCF)CC2)NC3=O)c(C)c1 (stereo not shown) [Compound 1064]	human PTH1 receptor (Homo sapiens, UniProt Q03431)	73%

====

testTarget: human PTH1 receptor (Homo sapiens)
Sequence (Q03431 27-593): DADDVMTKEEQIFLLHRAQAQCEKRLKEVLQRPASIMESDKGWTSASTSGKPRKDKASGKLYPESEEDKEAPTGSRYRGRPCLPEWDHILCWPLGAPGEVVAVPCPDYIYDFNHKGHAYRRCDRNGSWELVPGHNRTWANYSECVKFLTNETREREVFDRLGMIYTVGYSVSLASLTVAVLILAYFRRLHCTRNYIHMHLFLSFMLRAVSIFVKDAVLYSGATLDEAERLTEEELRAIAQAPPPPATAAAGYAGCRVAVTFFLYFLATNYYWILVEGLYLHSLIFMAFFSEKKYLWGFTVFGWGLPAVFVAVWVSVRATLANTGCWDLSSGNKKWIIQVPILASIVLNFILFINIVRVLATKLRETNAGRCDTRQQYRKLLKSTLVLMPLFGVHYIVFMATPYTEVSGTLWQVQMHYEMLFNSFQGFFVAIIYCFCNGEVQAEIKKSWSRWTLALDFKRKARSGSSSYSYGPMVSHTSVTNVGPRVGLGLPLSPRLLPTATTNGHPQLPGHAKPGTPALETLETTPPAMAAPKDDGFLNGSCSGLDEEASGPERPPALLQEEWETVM
assayComment: In vitro cAMP signal activity in HKRK-B7 cells (LLC-PK1 cells overexpressing the human PTH1 receptor)
Format: cell-based
conditionDescription: HKRK-B7 cells; compound at 1×10^−3 M; cAMP produced as percentage of that produced by hPTH(1-34) at 100 nM

compound	testTarget	cAMP production activity (%)
Cc1cc(C(=O)N2CCC(O)(CF)CC2)cc(C)c1/C=C/S(=O)(=O)N1CCC2(CC1)N=C(c1ccc(C(F)(F)F)c(OCC(F)(F)C(F)F)c1)NC2=O	human PTH1 receptor (Homo sapiens)	81
Cc1cc(C(=O)N2CCC(C)(O)CC2)cc(C)c1/C=C/S(=O)(=O)N1CCC2(CC1)N=C(c1cccc(C(C)(F)F)c1)NC2=O	human PTH1 receptor (Homo sapiens)	88
Cc1cc(N(C)C(N)=O)cc(C)c1CCS(=O)(=O)N1CCC2(CC1)N=C(CCCCCCCCC(F)F)NC2=O	human PTH1 receptor (Homo sapiens)	78
Cc1cc(CNC(=O)OC(C)(C)C)ccc1CCS(=O)(=O)N1CCC2(CC1)N=C(C1CCC(F)(F)CC1)NC2=O	human PTH1 receptor (Homo sapiens)	41
O=C1NC(C2CCCCC2)=NC12CCN(S(=O)(=O)/C=C/c1cc3nc[nH]c3cc1C(F)(F)F)CC2	human PTH1 receptor (Homo sapiens)	40
Cc1cc(C(F)(F)F)ccc1C1=NC2(CCN(S(=O)(=O)/C=C/c3c(C)cc(C(=O)N4CCC(O)(CF)CC4)cc3C)CC2)C(=O)N1	human PTH1 receptor (Homo sapiens)	101
O=C1NC(C2CCCCC2)=NC12CCN(S(=O)(=O)CC/C=C/c1cccc3[nH]ccc13)CC2	human PTH1 receptor (Homo sapiens)	28
CC(=O)NC[C@H]1CCC(=O)N1c1cc(C)c(/C=C/S(=O)(=O)N2CCC3(CC2)N=C(c2cccc(OC(F)(F)F)c2)NC3=O)c(C)c1	human PTH1 receptor (Homo sapiens)	85
Cc1cc(C(=O)N2CCN(CCF)CC2)cc(C)c1CCS(=O)(=O)N1CCC2(CC1)N=C(C1CCC(CCC(F)(F)F)CC1)NC2=O (centres unmarked)	human PTH1 receptor (Homo sapiens)	104
Cc1cc(S(=O)(=O)NCCN2CCOCC2)ccc1/C=C/S(=O)(=O)N1CCC2(CC1)N=C(c1cccc(C(F)(F)F)c1)NC2=O	human PTH1 receptor (Homo sapiens)	72
CC1(C)OC[C@H](Cn2ccc3c(/C=C/S(=O)(=O)N4CCC5(CC4)N=C(C4CCC(C(F)(F)F)CC4)NC5=O)cccc32)O1 (some centres unmarked)	human PTH1 receptor (Homo sapiens)	34
CC(C)n1ccc2c(CCS(=O)(=O)N3CCC4(CC3)N=C(C3CCCCC3)NC4=O)cccc21	human PTH1 receptor (Homo sapiens)	55
CC(=O)N(C)c1c(C)cc(CCS(=O)(=O)N2CCC3(CC2)N=C(C2CCC(C)CC2)NC3=O)cc1C (centres unmarked)	human PTH1 receptor (Homo sapiens)	50
Cc1cc(N2C(=O)N(C)C(C)(C)C2=O)cc(C)c1/C=C/S(=O)(=O)N1CCC2(CC1)N=C(C1CCC(C)CC1)NC2=O (centres unmarked)	human PTH1 receptor (Homo sapiens)	24
Cc1cc(C(=O)N2CCC(CO)CC2)cc(C)c1CCS(=O)(=O)N1CCC2(CC1)N=C(c1cccc(OC(F)(F)F)c1)NC2=O	human PTH1 receptor (Homo sapiens)	82
O=C1NC(C2CCC(CCC(F)(F)F)CC2)=NC12CCN(S(=O)(=O)CCc1cccc3c1ccn3CCOC[C@@H](O)CO)CC2 (some centres unmarked)	human PTH1 receptor (Homo sapiens)	99
COc1c(N(C)C(=O)OC(C)(C)C)cc(C)c(CCS(=O)(=O)N2CCC3(CC2)N=C([C@H]2CC[C@H](C)CC2)NC3=O)c1C	human PTH1 receptor (Homo sapiens)	58
CC(=O)N(CCO)c1cc(C)c(/C=C/S(=O)(=O)N2CCC3(CC2)N=C(c2ccc(F)c(C(F)(F)F)c2)NC3=O)c(C)c1	human PTH1 receptor (Homo sapiens)	74
C=CCCCCC1=NC2(CCN([S@TB17](=O)(=O)/C=C/c3c(C)cc(N(C)C(N)=O)cc3C)CC2)C(=O)N1	human PTH1 receptor (Homo sapiens)	136
CN(C)C(=O)c1cccc(-c2ccc(S(=O)(=O)N3CCC4(CC3)N=C(c3cccc(C(F)(F)F)c3)NC4=O)s2)c1	human PTH1 receptor (Homo sapiens)	23
Cc1cc(N(C)C(N)=O)cc(C)c1CCS(=O)(=O)N1CCC2(CC1)N=C(c1cccc(OC(F)(F)F)c1)NC2=O	human PTH1 receptor (Homo sapiens)	112
CC(=O)Nc1ccc(CCS(=O)(=O)N2CCC3(CC2)N=C(C2CCC(F)(CCCF)CC2)NC3=O)c(C)c1 (centres unmarked)	human PTH1 receptor (Homo sapiens)	66
Cc1cc(C(=O)N(C)N(C)C)cc(C)c1/C=C/S(=O)(=O)N1CCC2(CC1)N=C(C1CCC(CCC(F)(F)F)CC1)NC2=O (centres unmarked)	human PTH1 receptor (Homo sapiens)	87
Cc1cc(N(CC#N)C(N)=O)ccc1/C=C/S(=O)(=O)N1CCC2(CC1)N=C(c1cccc(OC(F)(F)F)c1)NC2=O	human PTH1 receptor (Homo sapiens)	45
Cc1cc(C(=O)N2CCN(C(N)=O)CC2)cc(C)c1/C=C/S(=O)(=O)N1CCC2(CC1)N=C(c1cccc(OC(F)(F)F)c1)NC2=O	human PTH1 receptor (Homo sapiens)	85
O=C1NC(C2CCCCC2)=NC12CCN(S(=O)(=O)CCc1cccc3ncccc13)CC2	human PTH1 receptor (Homo sapiens)	61

====

testTarget: human PTH1 receptor (Homo sapiens)
assayComment: In vitro cAMP signal activity in HKRK-B7 cells (LLC-PK1 cells overexpressing the human PTH1 receptor)
Assay type: cell-based
conditionDescription: HKRK-B7 cells; compound at 1×10^−3 M; cAMP produced as percentage of that produced by hPTH(1-34) at 100 nM
Each record here notes measured cAMP production activity (%).

compound	cAMP production activity (%)
[2H]C([2H])([2H])C([2H])([2H])C([2H])([2H])C([2H])([2H])Oc1cc(C2=NC3(CCN(S(=O)(=O)/C=C/c4c(C)cc(C(=O)N5CCC(C)(O)CC5)cc4C)CC3)C(=O)N2)cc(C(F)(F)F)c1	78
Cc1cc(N(C)C(N)=O)cc(C)c1CC(C)S(=O)(=O)N1CCC2(CC1)N=C(c1cccc(OC(F)(F)F)c1)NC2=O (stereo not drawn)	118
CCOCCCCCCC1=NC2(CCN([S@TB18](=O)(=O)/C=C/c3c(C)cc(N(C)C(N)=O)cc3C)CC2)C(=O)N1	140
